The measured values listed here are drawn from ChEMBL document CHEMBL2074222.

Each item that follows carries a reported pKi.
- system name: UniProtKB O35956
- Sequence (O35956 whole entry): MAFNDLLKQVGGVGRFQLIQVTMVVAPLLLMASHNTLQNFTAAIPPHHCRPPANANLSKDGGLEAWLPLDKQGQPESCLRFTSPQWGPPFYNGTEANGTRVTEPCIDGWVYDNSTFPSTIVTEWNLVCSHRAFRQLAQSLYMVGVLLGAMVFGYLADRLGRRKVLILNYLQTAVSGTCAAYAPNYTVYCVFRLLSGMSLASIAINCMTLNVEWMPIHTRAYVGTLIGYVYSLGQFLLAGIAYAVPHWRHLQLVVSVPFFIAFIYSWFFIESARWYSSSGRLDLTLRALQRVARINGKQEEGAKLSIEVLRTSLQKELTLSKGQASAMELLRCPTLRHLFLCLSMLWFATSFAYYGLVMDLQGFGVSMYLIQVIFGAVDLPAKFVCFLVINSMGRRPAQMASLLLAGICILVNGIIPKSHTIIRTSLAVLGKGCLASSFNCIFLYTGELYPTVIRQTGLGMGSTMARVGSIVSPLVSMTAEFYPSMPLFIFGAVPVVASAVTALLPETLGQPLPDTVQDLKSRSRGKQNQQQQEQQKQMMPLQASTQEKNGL
- assay overview: TP_TRANSPORTER: inhibition of PAH uptake in Xenopus laevis oocytes
Note: pKi values are expressed as the negative base-10 logarithm of concentration in M.

Task: State, in one line, measured pKi of CCOc1ccc(NC(C)=O)cc1 [PHENACETIN]
Output: 3.31

Task: State, in one line, measured pKi of COc1ccc2cc([C@H](C)C(=O)O)ccc2c1 [NAPROXEN]
Output: 5.70

Next:
Task: State, in one line, measured pKi of CCCCC1C(=O)N(c2ccccc2)N(c2ccc(O)cc2)C1=O (stereo not drawn) [OXYPHENBUTAZONE ANHYDROUS]
Output: 4.49
